- Target: PTP1B (PTP1B1-321) (Homo sapiens, UniProt P18031)
- Construct: His-tag; made in house; host or cells: E. coli BL21 (DE3), pET21b
- Sequence (P18031 1-321): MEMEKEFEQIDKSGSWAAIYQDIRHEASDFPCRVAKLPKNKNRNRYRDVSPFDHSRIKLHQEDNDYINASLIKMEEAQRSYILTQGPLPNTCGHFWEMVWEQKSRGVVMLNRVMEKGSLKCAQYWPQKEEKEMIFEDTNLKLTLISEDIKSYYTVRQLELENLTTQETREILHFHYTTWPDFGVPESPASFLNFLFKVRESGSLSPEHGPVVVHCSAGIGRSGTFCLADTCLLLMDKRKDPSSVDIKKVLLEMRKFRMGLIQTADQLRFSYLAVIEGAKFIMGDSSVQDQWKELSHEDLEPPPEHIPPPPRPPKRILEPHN
- Assay summary: PTP1B-catalyzed hydrolysis of pNPP in the presence of terpenoids (enzyme kinetics, IC50 from best-fit models)
- Format: biochemical, H. sapiens
- Experimental context: Example 1; 15 mM pNPP, 10% DMSO, HEPES pH 7.5
# maps each entry to its IC50

// worked examples, IC50 included
Molecule	Target	IC50
CC1=CCC[C@@]2(C)CCC3=C(C)CC[C@@H](C[C@H]12)C3(C)C [taxadiene]	PTP1B (PTP1B1-321) (Homo sapiens, UniProt P18031)	119 µM
C=C(C)[C@@H]1CC[C@@H](C)[C@@H]2CCC(C)=C[C@@H]21 [amorphadiene]	PTP1B (PTP1B1-321) (Homo sapiens, UniProt P18031)	~53 µM

Recall the recorded IC50 for CC(C)=CCC=C(C)C1CC=C(C)CC1 (stereo not drawn) [α-bisabolene] with PTP1B (PTP1B1-321) (Homo sapiens, UniProt P18031) and state it.
~20 µM
